Origin of the recorded values: the supplement of paper PMC8728848

- Tested system: Fuc(a1-2)Gal
- Assay: glycan array binding signal (z-score within array); higher = stronger binding
- Study conditions: glycan notation: IUPAC condensed, linker removed
Many of the other results were omitted from the sample, so the strongest signals are more common in it than they were.
Endpoint name: glycan array binding signal (z-score)
One number for each entry.

Q: # get_value(readout='glycan array binding signal (z-score)', item= Epa1 (Candida glabrata) (protein) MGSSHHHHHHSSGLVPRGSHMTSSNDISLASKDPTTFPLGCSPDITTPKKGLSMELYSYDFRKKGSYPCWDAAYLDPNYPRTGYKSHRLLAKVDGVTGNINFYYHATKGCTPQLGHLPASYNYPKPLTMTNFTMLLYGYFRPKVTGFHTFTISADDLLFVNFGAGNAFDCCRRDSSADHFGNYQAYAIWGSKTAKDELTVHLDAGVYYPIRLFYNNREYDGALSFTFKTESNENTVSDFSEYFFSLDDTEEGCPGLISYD )
Ans: -0.506
